- System: giant foxtail
- Experiment description: Test C pre-/postemergence test
- Type: in vivo, Setaria faberii
- Experimental conditions: preemergence, 250 g ai/ha; scale 0 (no effect) to 100 (complete control)
Quick list: Foxtail, Giant plant response rating per entry.
Lab note: jot down the number only; don't add units.

Below are worked cases with known answers.
- Compound: "Cn1nc(C(F)(F)F)c(C(Cl)S(=O)(=O)c2cccc[n+]2[O-])c1OC(F)F (stereo not drawn)"
  Measured result: 100
- Compound: "Cn1nc(C(F)(F)F)c(CS(=O)(=O)c2ccc(Cl)c[n+]2[O-])c1OCC(F)(F)F"
  Measured result: 80

Look at this compound and give its reported Foxtail, Giant plant response rating. Cn1nc(C(F)(F)F)c(C[S+]([O-])c2ccc(F)c[n+]2[O-])c1OC(F)F (stereo not drawn) 100

###

Item-by-item account of Crabgrass, Large plant response rating
- System: crabgrass
- Experiment description: Test C pre-/postemergence test
- Format: in vivo, Digitaria sanguinalis
- Experimental conditions: 62 g ai/ha, Preemergence; scale 0 to 100
When you answer, write just the number.

The cases that follow already have their Crabgrass, Large plant response rating on record.
- Molecule: "CC(c1c(C(F)(F)F)nn(CC(F)(F)F)c1Cl)[S+]([O-])c1cccc[n+]1[O-] (stereo not shown) [Compound 46]"
  Readout label: "Crabgrass, Large plant response rating"
  Measured result: 100
- Molecule: "Cc1cc[n+]([O-])c(S(=O)(=O)C(Cl)c2c(C(F)(F)F)nn(C)c2Cl)c1 (racemic) [Compound 22]"
  Readout label: "Crabgrass, Large plant response rating"
  Measured result: 100
- Molecule: "Cn1nc(C(F)(F)C(F)(F)F)c(C[S+]([O-])c2ccc(Cl)c[n+]2[O-])c1OCC(F)(F)F (stereo not shown) [Compound 92]"
  Readout label: "Crabgrass, Large plant response rating"
  Measured result: 98

Requested field: Crabgrass, Large plant response rating. Item: Cn1nc(C(F)(F)F)c(C[S+]([O-])c2cc(C(C)(C)C)cc[n+]2[O-])c1OC(F)F (racemic) [Compound 24] 100

Recorded Crabgrass, Large plant response rating for CC(c1c(C(F)(F)F)nn(C)c1OCC(F)(F)F)S(=O)(=O)c1cccc[n+]1[O-] (racemic) [Compound 33] , please? 100

What does the record list as Crabgrass, Large plant response rating for CC(c1c(C(F)(F)F)nn(C)c1OC(F)F)S(=O)(=O)c1cc(C(C)(C)C)cc[n+]1[O-] (racemic) [Compound 26] ? 100

# lookup: Crabgrass, Large plant response rating of Cn1nc(C(F)(F)F)c(CS(=O)(=O)c2cccc[n+]2[O-])c1OCC(F)F [Compound 81] 80

###

Listed next: entries and their corresponding Plant response rating, Lambsquarters.
- Tested on: lambsquarters
- Experiment description: Test C pre-/postemergence test
- Type: in vivo, Chenopodium album
- Experimental conditions: Preemergence, 31 g ai/ha; scale 0 to 100 (0 no effect, 100 complete control)

- Compound: "CC(c1c(C(F)(F)F)nn(C)c1OCC(F)(F)F)S(=O)(=O)c1cccc[n+]1[O-] (racemic)"
  Plant response rating, Lambsquarters: 90
- Compound: "Cn1nc(C(F)(F)F)c(C[S+]([O-])c2cc(F)cc[n+]2[O-])c1Cl (racemic)"
  Plant response rating, Lambsquarters: 80
- Compound: "CC(Oc1c(C[S+]([O-])c2cccc[n+]2[O-])c(C(F)(F)F)nn1C)C(F)(F)F (stereo not drawn)"
  Plant response rating, Lambsquarters: 100

Next, consider the following compound.
Plant response rating, Lambsquarters lookup needed for Cn1nc(C(F)(F)C(F)(F)F)c(C[S+]([O-])c2ccc(Cl)c[n+]2[O-])c1OCC(F)(F)F (stereo not drawn) , thanks. 100

###

- Tested on: prickly sida
- Experiment description: Test F preemergence test
- Format: in vivo, Sida spinosa
- Experimental conditions: 62 g ai/ha, Preemergence; scale 0 to 100
Readout label: Prickly Sida plant response rating

- Compound: "Cn1nc(C(F)(F)F)c(C[S+]([O-])c2ccc(Cl)c[n+]2[O-])c1OCC(F)(F)F (racemic)"
  Assay system: "prickly sida"
  Measured result: 75
- Compound: "Cn1nc(C(F)(F)F)c(C[S+]([O-])c2ccc(Cl)c[n+]2[O-])c1OC(F)F (stereo not shown)"
  Assay system: "prickly sida"
  Measured result: 100
- Compound: "Cn1nc(OC(F)F)c(CS(=O)(=O)c2cccc[n+]2[O-])c1C(F)(F)F"
  Assay system: "prickly sida"
  Measured result: 0

Please find the next compound below.
Param readout = Prickly Sida plant response rating; param system = prickly sida; param query = Cc1cc[n+]([O-])c(S(=O)(=O)C(Cl)c2c(C(F)(F)F)nn(C)c2Cl)c1 (racemic) ; response: value 40

###

- Test system: common groundsel
- Experiment description: Test F preemergence test
- Assay type: in vivo, Senecio vulgaris
- Experimental conditions: 125 g ai/ha, preemergence, scale 0 to 100
The entries below are paired with their reported Groundsel plant response rating.
// return a plain number; no unit text

Some solved cases for reference:
- Compound: "CC(Oc1c(C[S+]([O-])c2ccc(Cl)c[n+]2[O-])c(C(F)(F)F)nn1C)C(F)(F)F (centres unmarked)"
  Groundsel plant response rating: 65
- Compound: "CC(Oc1c(CS(=O)(=O)c2cccc[n+]2[O-])c(C(F)(F)F)nn1C)C(F)(F)F (centres unmarked)"
  Groundsel plant response rating: 90
- Compound: "Cc1cc[n+]([O-])c(S(=O)(=O)Cc2c(C(F)(F)F)nn(C)c2Cl)c1"
  Groundsel plant response rating: 70
- Compound: "Cc1cc[n+]([O-])c(S(=O)(=O)C(C)c2c(C(F)(F)F)nn(C)c2OC(F)F)c1 (centres unmarked)"
  Groundsel plant response rating: 98
- Compound: "Cn1nc(OC(F)F)c(CS(=O)(=O)c2cccc[n+]2[O-])c1C(F)(F)F"
  Groundsel plant response rating: 50
- Compound: "Cn1nc(C(F)(F)F)c(C[S+]([O-])c2cccc[n+]2[O-])c1OCC(F)(F)F (racemic)"
  Groundsel plant response rating: 100
- Compound: "Cc1cc[n+]([O-])c(S(=O)(=O)C(Cl)c2c(C(F)(F)F)nn(C)c2Cl)c1 (racemic)"
  Groundsel plant response rating: 98

Next up:
Form field: reported Groundsel plant response rating of Cn1nc(C(F)(F)C(F)(F)F)c(C[S+]([O-])c2cccc[n+]2[O-])c1OCC(F)(F)F (centres unmarked) 100

###

- System: wheat
- Experiment description: Test A pre-/postemergence greenhouse test
- Format: in vivo, Triticum aestivum
- Experimental conditions: Preemergence, 125 g ai/ha; 0 to 100 scale, 0 no effect, 100 complete control
Known Wheat plant response rating of a selection of molecules
Respond with the number and no other words.

- Molecule: "Cn1nc(C(F)(F)C(F)(F)F)c(CS(=O)(=O)c2ccc(Cl)c[n+]2[O-])c1OCC(F)(F)F [Compound 100]"
  Assay system: "wheat"
  Wheat plant response rating: 0
- Molecule: "Cn1nc(C(F)(F)F)c(C[S+]([O-])c2ccc(Cl)c[n+]2[O-])c1OC(F)F (centres unmarked) [Compound 6]"
  Assay system: "wheat"
  Wheat plant response rating: 90
- Molecule: "Cc1cc[n+]([O-])c(S(=O)(=O)Cc2c(C(F)(F)F)nn(C)c2Cl)c1 [Compound 19]"
  Assay system: "wheat"
  Wheat plant response rating: 40
- Molecule: "Cn1nc(C(F)(F)F)c(C[S+]([O-])c2ccc(Cl)c[n+]2[O-])c1OCC(F)(F)C(F)(F)F (centres unmarked) [Compound 89]"
  Assay system: "wheat"
  Wheat plant response rating: 30
- Molecule: "C#CCOc1c(C[S+]([O-])c2cccc[n+]2[O-])c(C(F)(F)F)nn1C (centres unmarked) [Compound 76]"
  Assay system: "wheat"
  Wheat plant response rating: 20

Sample CCc1cc[n+]([O-])c([S+]([O-])Cc2c(C(F)(F)F)nn(C)c2OC(F)F)c1 (centres unmarked) [Compound 101] — what was its Wheat plant response rating? 70

Look up Wheat plant response rating for this molecule: Cc1cc[n+]([O-])c(S(=O)(=O)Cc2c(C(F)(F)F)nn(C)c2OC(C)C(F)(F)F)c1 (centres unmarked) [Compound 96] 20

###

// reported Plant response rating, Ryegrass, Italian per item
- System: Italian ryegrass
- Experiment description: Test D preemergence test
- Assay type: in vivo, Lolium multiflorum
- Experimental conditions: 250 g ai/ha, scale 0 to 100
The answer should be written as a number, with no unit following it.

Completed entries (count: 4):
- Compound: "Cn1nc(C(F)(F)F)c(C(Cl)S(=O)(=O)c2cccc[n+]2[O-])c1Cl (centres unmarked)"
  Plant response rating, Ryegrass, Italian: 100
- Compound: "Cc1cc[n+]([O-])c(S(=O)(=O)C(C)c2c(C(F)(F)F)nn(C)c2Cl)c1 (racemic)"
  Plant response rating, Ryegrass, Italian: 100
- Compound: "Cn1nc(C(F)(F)F)c(CS(=O)(=O)c2ccc(Cl)c[n+]2[O-])c1OC(F)F"
  Plant response rating, Ryegrass, Italian: 20
- Compound: "Cc1cc[n+]([O-])c(S(=O)(=O)C(Cl)c2c(C(F)(F)F)nn(C)c2Cl)c1 (racemic)"
  Plant response rating, Ryegrass, Italian: 55

Looking for the measured Plant response rating, Ryegrass, Italian of Cc1cc[n+]([O-])c(S(=O)(=O)Cc2c(C(F)(F)F)nn(C)c2OC(F)F)c1 , can you help? 50
